tested on: HeLa (human cervix carcinoma); assay: cytotoxicity assay, HeLa; format: cell-based; details: read-out: HeLa CC50; cytotoxicity, HeLa human cervix carcinoma

| Smiles text | CC50 |
| --- | --- |
| CCC(=O)O[C@H]1[C@H](C)O[C@@H](O[C@H]2[C@H](N(C)C)[C@@H](O)[C@H](O[C@H]3[C@@H](CC=O)C[C@@H](C)[C@@H](O)/C=C/C=C/C[C@@H](C)OC(=O)C[C@@H](O)[C@@H]3OC)O[C@@H]2C)C[C@@]1(C)O | > 66 µM |
